Please go through the items and note down their self-cleavage kobs at 640 uM GlcN6P.
B1: glmS ribozyme (parent)
chain: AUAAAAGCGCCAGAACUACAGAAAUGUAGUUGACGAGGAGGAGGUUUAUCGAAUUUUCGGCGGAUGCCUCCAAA

Variants of: B1
Assay: self-cleavage kobs at 640 uM GlcN6P; higher = faster cleavage; RNA array
Conditions: with glucosamine-6-phosphate
Fewer inactive variants are shown than the library holds.

I have 3 variants here; please give me self-cleavage kobs at 640 uM GlcN6P for each one.
1. A14G A15G A33G G40U
2. U30G C71G
3. A14U A36C

a:
["< 1e-05 s⁻¹", "9.91e-05 s⁻¹", "< 1e-05 s⁻¹"]

I have 8 variants here; please give me self-cleavage kobs at 640 uM GlcN6P for each one.
1. U46C U69G
2. G35A G43U U45C A53G G59A
3. U47C C67G
4. A15U G66A
5. G7U G9C
6. G9C G13C G35C
7. C8A G9C G37C
8. G41U C68A

a:
1: 8.03e-05 s⁻¹; 2: < 1e-05 s⁻¹; 3: 8.28e-05 s⁻¹; 4: 0.000781 s⁻¹; 5: < 1e-05 s⁻¹; 6: < 1e-05 s⁻¹; 7: < 1e-05 s⁻¹; 8: < 1e-05 s⁻¹
